Entries and their measured self-splicing fitness (ln) follow.
test: self-splicing fitness, log relative to wild type (ln ratio); higher = more splicing; Tetrahymena group I intron in knt gene, E. coli kanamycin selection, DiMSum; sequences stand for … in CUCUCU…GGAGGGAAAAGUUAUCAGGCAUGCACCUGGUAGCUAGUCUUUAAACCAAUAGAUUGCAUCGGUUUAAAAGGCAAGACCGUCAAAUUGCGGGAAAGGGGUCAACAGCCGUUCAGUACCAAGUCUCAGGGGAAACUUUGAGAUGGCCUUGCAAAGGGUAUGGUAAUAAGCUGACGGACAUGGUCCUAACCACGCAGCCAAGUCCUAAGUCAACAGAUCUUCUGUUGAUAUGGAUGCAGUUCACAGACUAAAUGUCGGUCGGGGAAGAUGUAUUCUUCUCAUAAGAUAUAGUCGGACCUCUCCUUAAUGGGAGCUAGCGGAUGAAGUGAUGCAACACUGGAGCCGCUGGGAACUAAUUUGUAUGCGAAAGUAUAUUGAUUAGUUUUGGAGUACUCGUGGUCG; settings: 37 °C;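 also: selection with 25 µg/mL kanamycin versus none on LB agar overnight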
Enter the number alone.

Previously resolved entries follow.
{"QUERY SEQUENCE": "UGGUAGCAAUAUUACGUGAA", "QUANTITY": "self-splicing fitness (ln)", "ASSAY VALUE": -1.57}
{"QUERY SEQUENCE": "CGGCAGCAAUAUUACGUAUU", "QUANTITY": "self-splicing fitness (ln)", "ASSAY VALUE": -3.11}
{"QUERY SEQUENCE": "CACCAGCAAUAUUACGCGAG", "QUANTITY": "self-splicing fitness (ln)", "ASSAY VALUE": -0.594}

Summary for this sequence, "GGACAGCAAUAUUACGCAGA" : self-splicing fitness (ln) is -0.643

Summary for this sequence, "GCCAAGCAAUAUUACGAUGU" : self-splicing fitness (ln) is 0.0237

Summary for this sequence, "UAAUAGCAAUAUUACGUUCC" : self-splicing fitness (ln) is -1.52

Summary for this sequence, "UCACAGCAAUAUUACGUAUA" : self-splicing fitness (ln) is -1.37

Summary for this sequence, "CGCAAGCAAUAUUACGGACC" : self-splicing fitness (ln) is -0.3

Summary for this sequence, "GCACAGCAAUAUUACGGUUA" : self-splicing fitness (ln) is -0.384

====

experiment: self-splicing fitness, log relative to wild type (ln ratio); higher = more splicing; Tetrahymena group I intron in knt gene, E. coli kanamycin selection, DiMSum; sequences stand for … in CUCUCU…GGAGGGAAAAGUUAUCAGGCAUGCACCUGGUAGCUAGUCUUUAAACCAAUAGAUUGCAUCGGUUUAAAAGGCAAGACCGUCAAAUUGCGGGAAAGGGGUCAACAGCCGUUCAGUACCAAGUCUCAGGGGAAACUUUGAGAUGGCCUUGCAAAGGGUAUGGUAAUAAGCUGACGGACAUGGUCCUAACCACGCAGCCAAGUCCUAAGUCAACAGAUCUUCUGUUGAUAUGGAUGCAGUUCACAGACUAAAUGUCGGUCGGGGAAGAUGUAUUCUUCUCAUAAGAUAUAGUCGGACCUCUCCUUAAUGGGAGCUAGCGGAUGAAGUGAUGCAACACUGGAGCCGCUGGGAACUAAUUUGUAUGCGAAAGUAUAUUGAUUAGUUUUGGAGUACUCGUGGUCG; details: 37 °C
QUANTITY: self-splicing fitness (ln)
Enter the number alone.

{"QUERY SEQUENCE": "GCCCAGCAAUAUUACGACUG", "self-splicing fitness (ln)": -2.44}
{"QUERY SEQUENCE": "AGUUAGCAAUAUUACGAUGC", "self-splicing fitness (ln)": -0.0326}
{"QUERY SEQUENCE": "UUGCAGCAAUAUUACGUAAG", "self-splicing fitness (ln)": 0.527}

Summary for this sequence, "CUCAAGCAAUAUUACGCUGC" : self-splicing fitness (ln) is -2.63

Summary for this sequence, "AGACAGCAAUAUUACGCCCG" : self-splicing fitness (ln) is -0.555

Summary for this sequence, "ACCCAGCAAUAUUACGACUA" : self-splicing fitness (ln) is -0.765

Summary for this sequence, "GGAAAGCAAUAUUACGUAAA" : self-splicing fitness (ln) is -0.563

Summary for this sequence, "GAUAAGCAAUAUUACGCACG" : self-splicing fitness (ln) is -0.4

Summary for this sequence, "GAUGAGCAAUAUUACGCAGU" : self-splicing fitness (ln) is -2.44

Summary for this sequence, "UCGCAGCAAUAUUACGUAGU" : self-splicing fitness (ln) is -2.85

Numbers sourced from the supplement of paper PMC7877785.
